We begin with a simple list: items and their reported viability.
assay_explanation: Her2 expression decrease, cell viability multiplex – SKBR3 breast tumor cells, AlphaScreen, ATP viability, primary screen (AID 461);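 note: percent of carrier control wells set as 100% viability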
experimental_parameters: SKBR3 Her2 protein level, 18-24 h, measured here: SKBR3 viability, ATP luminescence, at 10 µM
Your answer is read as %, so omit the unit and give the number.

Answered examples (6):
compound: C/C=C/CSc1nc2c(c(=O)[nH]c(=O)n2C)n1Cc1ccc(C)cc1
reported: 102
//
compound: Cn1ccnc1SCC(=O)Nc1ccc2ccccc2c1
reported: 96.5
//
compound: COc1ccc(-c2nnc(SCC(=O)NC(C)c3ccccc3)o2)cc1 (centres undefined)
reported: 94
//
compound: C(=N\c1c(-c2ccccc2)nc2n1CCS2)/c1ccccc1
reported: 102
//
compound: CC(C)(C)NC(=O)CC(CC(=O)O)c1ccccc1 (centres undefined)
reported: 112
//
compound: CCCCNC(=O)Cn1c(=O)n(C)c2ccccc21
reported: 105

Sample CCN(CC)C(=O)Oc1ccc(NC(C)=O)cc1 ; viability observed: 88.5

Sample O=C(CSc1ccc2nnc(-c3ccccc3)n2n1)N1CCN(c2ccccc2)CC1 ; viability observed: 93.5

Sample Cc1cccc(OCC(=O)N2CCN(C(=O)Cc3ccccc3)CC2)c1 ; viability observed: 102

Sample COc1ccccc1S(=O)(=O)Cc1ccc(C(=O)N2CCN(c3ccc(C)cc3)C(C)C2)o1 (centres undefined) ; viability observed: 82.5

Sample COc1ccc(S(=O)(=O)N2CCCC2C(=O)Nc2ccc(O)cc2)cc1 (centres undefined) ; viability observed: 93.5

Sample Cn1nnc2cc(C(=O)N3CCCCCC3)ccc21 ; viability observed: 81.5

Sample Cc1nc2ccccc2c2oc(C(=O)N3CCN(C(=O)c4ccco4)CC3)cc12 ; viability observed: 79

Sample O=C(Cn1nc(Cc2ccncc2)c2ccccc2c1=O)N1CCN(C(=O)c2ccco2)CC1 ; viability observed: 98.5

Sample Cc1ccc(-c2nc3cnccn3c2Nc2ccc3c(c2)OCO3)o1 ; viability observed: 91.5

Sample CCCSCCCNC(=O)Cn1cc2c(n1)CCC(C)C2 (centres undefined) ; viability observed: 99.5

Sample Cc1c(NC(=O)c2noc3c2CCc2ccccc2-3)c(=O)n(-c2ccccc2)n1C ; viability observed: 95.5

Sample COc1ccc(N(C)C(=O)CCS(=O)(=O)c2cccc3nonc23)cc1 ; viability observed: 96.5

Sample CC1=C(C(=O)OCc2ccccc2)C(c2ccco2)n2ncnc2N1 (centres undefined) ; viability observed: 98.5

Sample Cc1cc(C)c2c(=O)n(CC(=O)NCCCN3CCN(c4ccccc4F)CC3)sc2n1 ; viability observed: 107

Sample Clc1cccc(N2CCN(Cc3nc(-c4ccccc4)no3)CC2)c1 ; viability observed: 90.5

Sample COCCOC(=O)C1=C(C)OC(N)=C(C#N)C1c1ccc2c(c1)OCO2 (centres undefined) ; viability observed: 98

Sample COc1cccc(C2CC(=O)Nc3c2c(=O)n(C)c(=O)n3C)c1OC (centres undefined) ; viability observed: 98.5
